System: BV-2
Assay: Cytotoxicity against mouse BV-2 cells assessed as reduction in cell viability at 20 uM incubated for 24 hrs by MTT assay
Assay type: toxicity, cell-based
Conditions: bv-2, 24 h
Endpoint name: Activity

Some compounds with recorded Activity:
>>> df
                            chemical_smiles  assayed_system  endpoint_name  endpoint_result
0  C=CC(=O)OC(C)(C)[C@@H]1/C=C/[C@@H](C)C(=O)[C@@]2(O)C[C@H](C)[C@H](O)[C@@H]2[C@@H](O)C(=C)CC1            BV-2       Activity        Non-Toxic
1  C=C1CC[C@H](C(C)(C)OC(C)=O)/C=C/[C@@H](C)C(=O)[C@@]2(O)C[C@H](C)[C@H](O)[C@@H]2[C@H]1O            BV-2       Activity        Non-Toxic
2  C=C1CC[C@H](C(C)(C)OC)/C=C/[C@@H](C)C(=O)[C@@]2(O)C[C@H](C)[C@H](O)[C@@H]2[C@H]1O            BV-2       Activity        Non-Toxic
3  C=C1CC[C@H](C(C)(C)OC(=O)COCC)/C=C/[C@@H](C)C(=O)[C@@]2(O)C[C@H](C)[C@H](O)[C@@H]2[C@H]1O            BV-2       Activity        Non-Toxic
4  C=C1[C@@H](O)C[C@H](C(C)(C)OC(=O)COCC)/C=C/[C@@H](C)C(=O)[C@@]2(O)C[C@H](C)[C@H](O)[C@@H]2[C@H]1O            BV-2       Activity        Non-Toxic
5  C=C1CC[C@H](C(C)(C)OCC)/C=C/[C@@H](C)C(=O)[C@@]2(O)C[C@H](C)[C@H](O)[C@@H]2[C@H]1O            BV-2       Activity        Non-Toxic

Query Activity on BV-2 for `C=CC(=O)OC(C)(C)[C@@H]1/C=C/[C@@H](C)C(=O)[C@@]2(O)C[C@H](C)[C@H](O)[C@@H]2[C@@H](O)C(=C)[C@@H](O)C1`
Non-Toxic

What Activity appears in the records for this compound with BV-2? `C=C1[C@@H](O)C[C@H](C(C)(C)OC(C)=O)/C=C/[C@@H](C)C(=O)[C@@]2(O)C[C@H](C)[C@H](O)[C@@H]2[C@H]1O`
Non-Toxic
